Field: GI50. Provide a value for each of the compounds that follow.
- System: A498
- PROTOCOL SUMMARY: NCI tumour cell line growth inhibition, 48 h
The source made the active and inactive calls. Cut-off read from the data, not from the text of the source: active = GI50 up to about 1.1 µM and inactive = higher.

| COMPOUND | GI50 |
| --- | --- |
| Cc1ccc2c(c1)[nH]c(=S)n2C=C(C(N)=O)C(N)=O | > 100 µM (inactive) |

Give GI50 for all compounds that follow.
1. Oc1c2c(c(O)c3ccccc13)C1(N=N2)c2ccccc2Oc2ccccc21
2. COc1ccc(N2CCN(Cc3c(C(C)=O)[n+]([O-])c4ccccc4[n+]3[O-])CC2)cc1
3. c1ccc(NN/N=N/c2ccc(-c3nc4ccccc4[nH]3)cc2)cc1

Reply:
1: 19 µM (inactive); 2: 44.7 µM (inactive); 3: 43.7 µM (inactive)
